This collection of values is drawn from the supplement of paper PMC8728848.

# glycan array binding signal (z-score) per entry
target: Fuc(a1-2)[GalNAc(a1-3)]Gal(b1-4)GlcNAc(b1-2)Man(a1-3)[Fuc(a1-2)[GalNAc(a1-3)]Gal(b1-4)GlcNAc(b1-2)Man(a1-6)]Man(b1-4)GlcNAc(b1-4)[Fuc(a1-6)]GlcNAc; experiment: glycan array binding signal (z-score within array); higher = stronger binding; settings: glycan notation: IUPAC condensed, linker removed
The sample as a whole holds a higher share of the strongest signals than the screen did.
// keep it numeric: no unit symbol after the value

Consider the following illustrative entries.
What glycan array binding signal (z-score) value was documented for this binder, EfCBM33A (Enterococcus faecalis), Q838S1 (protein) MKKSLLTIVLAFSFVLGGAALAPTVSEAHGYVASPGSRAFFGSSAGGNLNTNVGRAQWEPQSIEAPKNTFITGKLASAGVSGFEPLDEQTATRWHKTNITTGPLDITWNLTAQHRTASWDYYITKNGWNPNQPLDIKNFDKIASIDGKQEVPNKVVKQTINIPTDRKGYHVIYAVWGIGDTVNAFYQAIDVNIQ ?
-0.321

Param item: CFEM-CGl (Candida glabrata), Q6FRS0 (protein) VLATPPACLLACVAQVSKQSSQCHTLNQVGCFCENENTAIKNCLDSICPNGNSDAAYTAFKNSCGDVGKAVASV
-0.183

Param item: Mg1lysM (Mycosphaerella graminicola) (protein) QRNPITITPQFDCGATNSQQYVARSGDTLTKIAQEIYHDVVGVCDIARANNLADPNRIDAGTPYTIPINCQTYDRNSCL
-0.079

Param item: Protein L(B1-B4) (Finegoldia magna), Q51912 (protein) KEETPETPETDSEEEVTIKANLIFANGSTQTAEFKGTFEKATSEAYAYADTLKKDNGEYTVDVADKGYTLNIKFAGKEKTPEEPKEEVTIKANLIYADGKTQTAEFKGTFEEATAEAYRYADALKKDNGEYTVDVADKGYTLNIKFAGKEKTPEEPKEEVTIKANLIYADGKTQTAEFKGTFEEATAEAYRYADLLAKENGKYTVDVADKGYTLNIKFAGKEKTPEEPKEEVTIKANLIYADGKTQTAEFKGTFAEATAEAYRYADLLAKENGKYTADLEDGGYTINIRFAG
2.95

Kindly consider the entry below.
What glycan array binding signal (z-score) value was documented for this binder, Clone730PsrP (Streptococcus pneumoniae) (protein) MDHHHHHHHHHHASENLYFQGAMVVGSQTAAATEATAKKVEEDRKKPASDYVASVTNVNLQSYAKRRKRSVDSIEQLLASIKNAAVFSGNTIVNGAPAINASLNIAKSETKVYTGEGVDSVYRVPIYYKLKVTNDGSKLTFTYTVTYVNPKTNDLGNISSMRPGYSIYNSGTSTQTMLTLGSDLGKPSGVKNYITDKNGRQVLSYNTSTMTTQGSGYTWGNGAQMNGFFAKKGYGLTSSWTVPITGTDTSFTFTPYAARTDRIGINYFNGGGKVVESSTT ?
2.17
